Target: Adrenergic receptor alpha-2 (Rattus norvegicus, UniProt P22086+P19328+P22909)
Test: Displacement [3H]yohimbine from alpha 2 adrenergic receptor in rat brain cortex homogenates after 30 mins by liquid scintillation counting
Assay type: tissue-based

[
  {
    "COMPOUND": "N#C/N=C(\\NCCCN1CCN(c2cccc3ccccc23)CC1)c1ccncc1",
    "QUALIFIER_SIGN": "=",
    "Ki, nM": 878
  },
  {
    "COMPOUND": "O=c1c2ccccc2nnn1CCCN1CCN(c2cccc3ccccc23)CC1",
    "QUALIFIER_SIGN": "=",
    "Ki, nM": 3600
  },
  {
    "COMPOUND": "O=C1C2C3C=CC(C3)C2C(=O)N1OCCN1CCN(c2cccc3ccccc23)CC1 (stereo not drawn)",
    "QUALIFIER_SIGN": "=",
    "Ki, nM": 1200
  },
  {
    "COMPOUND": "O=C1C2C3C=CC(C3)C2C(=O)N1OCCCN1CCN(c2cccc3ccccc23)CC1 (stereo not drawn)",
    "QUALIFIER_SIGN": "=",
    "Ki, nM": 189
  },
  {
    "COMPOUND": "O=c1c2ccccc2nnn1CCN1CCN(c2cccc3ccccc23)CC1",
    "QUALIFIER_SIGN": "=",
    "Ki, nM": 1880
  },
  {
    "COMPOUND": "N#C/N=C(\\NCCCN1CCN(c2cccc3ccccc23)CC1)c1ccccn1",
    "QUALIFIER_SIGN": ">",
    "Ki, nM": 10000
  },
  {
    "COMPOUND": "O=c1c2ccccc2nnn1OCCCN1CCN(c2cccc3ccccc23)CC1",
    "QUALIFIER_SIGN": ">",
    "Ki, nM": 10000
  },
  {
    "COMPOUND": "O=c1c2ccccc2nnn1OCCN1CCN(c2cccc3ccccc23)CC1",
    "QUALIFIER_SIGN": ">",
    "Ki, nM": 10000
  }
]
